FYI, the data here is from patent US20160041182A1.

Target: T1, mouse IL-17A (mouse, UniProt Q62386 26-158, limits assumed)
T1 construct: In SPR it was injected in solution, and no biotinylation is mentioned there; also called mIL-17A; mIL17A
T1 sequence (looked up): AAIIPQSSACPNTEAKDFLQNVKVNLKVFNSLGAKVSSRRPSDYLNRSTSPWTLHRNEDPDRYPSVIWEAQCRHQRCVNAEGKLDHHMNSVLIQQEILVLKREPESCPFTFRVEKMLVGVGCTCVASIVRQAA
Assay: SPR (ProteOn XPR-36), clone amine-coupled on chip, mIL-17A in solution, 1:1 Langmuir fit
Result type: koff (s⁻¹)
Kindly answer with a numeric value in s⁻¹, unit omitted.

>>> reported_result("TP1KR9P62-H10 (designed binder, also called TCL14-His fusion protein) MLPAPKNLVVSRVTEDSARLSWTAPDAAFDSFAIEYFEDWWSGEAIVLTVPGSERSYDLTGLKPGTEYSVSIRGVKGGHPSVPLSAIFTT")
"2.11e-05"

// switching to the query binder
Record request: koff value, item TP1KR9P62-A2 (designed binder, also called TCL14-His fusion protein) MLPALKNLVVSRVTEDSAHLSWTAPDAAFDSFAIEYSEDYWLGEAIVLTVPGSERSYDLTGLKPGTEYGVSIRGVKGGYPSPPLSAIFTT
2.17e-05
